The origin of these recorded values is PubChem BioAssay (EPA / NIEHS).

Biological target: Bile acid receptor (Homo sapiens) (UniProt Q96RI1)
Sequence (Q96RI1 whole entry, looked up): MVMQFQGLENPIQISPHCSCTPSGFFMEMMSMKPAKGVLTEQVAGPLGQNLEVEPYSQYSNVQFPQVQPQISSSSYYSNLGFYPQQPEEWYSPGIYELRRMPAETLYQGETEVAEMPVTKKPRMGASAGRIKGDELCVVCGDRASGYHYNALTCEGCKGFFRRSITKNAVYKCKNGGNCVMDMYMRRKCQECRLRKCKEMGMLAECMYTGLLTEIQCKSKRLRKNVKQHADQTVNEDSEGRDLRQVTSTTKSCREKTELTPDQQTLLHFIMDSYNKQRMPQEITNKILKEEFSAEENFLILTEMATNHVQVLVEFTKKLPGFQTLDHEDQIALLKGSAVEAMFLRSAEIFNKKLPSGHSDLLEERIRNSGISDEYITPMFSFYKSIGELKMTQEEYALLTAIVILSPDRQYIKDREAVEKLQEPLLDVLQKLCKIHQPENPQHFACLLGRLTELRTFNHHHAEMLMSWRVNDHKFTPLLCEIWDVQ
Experiment: OT_FXR_FXRSRC1_1440: Odyssey Thera (OT) 24-hour HEK293T Protein-Complementation Assay for Farnesoid X receptor/SRC-1 Co-activator (AID 2283384)
Records with an inconclusive call do not appear. The source made the active and inactive calls. Rule for the calls: active = hit-call score of the fitted dose curve at least 0.9, where 1 is the maximum; inconclusive = response in the unintended direction; inactive = score below 0.9.
Hello, when you answer, please use one of the following outcomes: active, inactive

See these solved cases before continuing.
[
  {
    "smiles-representation": "O=C(O)c1[nH]n(-c2ccc(S(=O)(=O)O)cc2)c(=O)c1N=Nc1ccc(S(=O)(=O)O)cc1",
    "study-system": "Bile acid receptor (Homo sapiens) (UniProt Q96RI1)",
    "category-label": "inactive"
  },
  {
    "smiles-representation": "Nc1nc(Cl)nc2c1ncn2[C@H]1C[C@H](O)[C@@H](CO)O1",
    "study-system": "Bile acid receptor (Homo sapiens) (UniProt Q96RI1)",
    "category-label": "active"
  },
  {
    "smiles-representation": "CSc1ccc(Oc2ccc(S(N)(=O)=O)cc2CN(C)C)cc1C",
    "study-system": "Bile acid receptor (Homo sapiens) (UniProt Q96RI1)",
    "category-label": "active"
  }
]

Attention now shifts to the item below.
# input Tell me the assay call for `C=CCCCCCCCCCCCC` please.
# output inactive
